Biological target: Bile salt export pump (Homo sapiens, UniProt O95342); also: assay procedure not described here
Sequence (O95342 whole entry): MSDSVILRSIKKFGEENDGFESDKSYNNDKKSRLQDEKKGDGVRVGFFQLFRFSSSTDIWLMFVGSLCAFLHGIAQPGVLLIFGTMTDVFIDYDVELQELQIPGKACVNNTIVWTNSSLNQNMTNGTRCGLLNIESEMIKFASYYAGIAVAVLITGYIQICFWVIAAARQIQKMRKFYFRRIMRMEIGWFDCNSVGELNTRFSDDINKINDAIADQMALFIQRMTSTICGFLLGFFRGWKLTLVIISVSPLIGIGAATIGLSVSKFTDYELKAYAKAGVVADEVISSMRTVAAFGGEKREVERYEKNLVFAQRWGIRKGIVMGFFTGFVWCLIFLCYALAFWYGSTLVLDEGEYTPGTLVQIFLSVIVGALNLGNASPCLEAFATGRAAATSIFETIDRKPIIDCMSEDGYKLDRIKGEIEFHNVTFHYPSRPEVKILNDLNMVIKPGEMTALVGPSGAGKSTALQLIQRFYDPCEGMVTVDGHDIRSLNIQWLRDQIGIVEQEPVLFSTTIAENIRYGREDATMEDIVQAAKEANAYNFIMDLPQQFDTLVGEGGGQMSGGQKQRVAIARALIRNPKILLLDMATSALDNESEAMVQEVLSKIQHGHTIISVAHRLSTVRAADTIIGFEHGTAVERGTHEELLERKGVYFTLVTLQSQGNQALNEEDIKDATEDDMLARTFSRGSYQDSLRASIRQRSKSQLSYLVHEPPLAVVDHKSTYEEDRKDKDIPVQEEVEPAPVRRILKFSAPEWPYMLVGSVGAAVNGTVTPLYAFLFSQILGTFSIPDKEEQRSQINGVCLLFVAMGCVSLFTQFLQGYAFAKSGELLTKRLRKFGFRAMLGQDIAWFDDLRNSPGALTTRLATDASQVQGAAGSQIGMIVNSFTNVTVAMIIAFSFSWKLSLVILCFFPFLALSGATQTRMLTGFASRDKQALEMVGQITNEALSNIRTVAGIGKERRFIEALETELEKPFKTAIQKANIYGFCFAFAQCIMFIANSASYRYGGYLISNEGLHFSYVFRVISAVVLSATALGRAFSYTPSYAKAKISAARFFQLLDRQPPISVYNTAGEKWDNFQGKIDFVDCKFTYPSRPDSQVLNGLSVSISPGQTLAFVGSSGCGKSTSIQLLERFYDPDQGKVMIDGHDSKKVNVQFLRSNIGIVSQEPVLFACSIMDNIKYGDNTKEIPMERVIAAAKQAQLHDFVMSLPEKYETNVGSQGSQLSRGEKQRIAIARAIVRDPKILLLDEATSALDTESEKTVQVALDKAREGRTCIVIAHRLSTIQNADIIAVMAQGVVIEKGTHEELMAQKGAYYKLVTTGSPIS
Type: functional
Give AC50 for every item shown.
Give bare numbers, in µM.

- Cc1ccc([C@@H]2O[C@H](CO)[C@@H](O)[C@H](O)[C@H]2O)cc1Cc1ccc(-c2ccc(F)cc2)s1 [CANAGLIFLOZIN ANHYDROUS]: 38
- CC(/C=C1\SC(=S)N(CC(=O)O)C1=O)=C\c1ccccc1: 1.6
- [H]/N=C(\N/C(=N/[H])NCCCCCCNC(=N)NC(=N)Nc1ccc(Cl)cc1)Nc1ccc(Cl)cc1: 170

Each molecule below has a recorded value; state its AC50.
1. CCC(=O)O[C@@H](O[P@](=O)(CCCCc1ccccc1)CC(=O)N1C[C@H](C2CCCCC2)C[C@H]1C(=O)O)C(C)C
2. CCCN(CCc1cccs1)[C@H]1CCc2c(O)cccc2C1
3. COC(=O)[C@H](c1ccccc1Cl)N1CCc2sccc2C1

## Output
[11, 260, 40]

* * *

Reported AC50 values, Beta-2 adrenergic receptor (Homo sapiens, UniProt P07550).

Examples from the recorded data:
* NC(=O)CCC/N=C(\c1ccc(Cl)cc1)c1cc(F)ccc1O [PROGABIDE] | > 10 µM
* CC1(C)C(C=C(Cl)Cl)C1C(=O)OCc1cccc(Oc2ccccc2)c1 (stereo not given) | > 10 µM
* C[C@@H]1CCC[C@H](C)N1NC(=O)c1ccc(Cl)c(S(N)(=O)=O)c1 [CLOPAMIDE] | > 30 µM
* O=C1CN2Cc3c(ccc(Cl)c3Cl)N=C2N1 [ANAGRELIDE] | > 10 µM

In the following, a different molecule is considered.
## Input For the molecule C[C@]1(COc2ccc(N3CCC(Oc4ccc(OC(F)(F)F)cc4)CC3)cc2)Cn2cc([N+](=O)[O-])nc2O1 , give its reported AC50.
## Output > 10 µM

* * *

Give AC50 for every item shown.
Target: Mu-type opioid receptor (Homo sapiens, UniProt P35372); also: assay procedure not described here
Sequence (P35372 whole entry): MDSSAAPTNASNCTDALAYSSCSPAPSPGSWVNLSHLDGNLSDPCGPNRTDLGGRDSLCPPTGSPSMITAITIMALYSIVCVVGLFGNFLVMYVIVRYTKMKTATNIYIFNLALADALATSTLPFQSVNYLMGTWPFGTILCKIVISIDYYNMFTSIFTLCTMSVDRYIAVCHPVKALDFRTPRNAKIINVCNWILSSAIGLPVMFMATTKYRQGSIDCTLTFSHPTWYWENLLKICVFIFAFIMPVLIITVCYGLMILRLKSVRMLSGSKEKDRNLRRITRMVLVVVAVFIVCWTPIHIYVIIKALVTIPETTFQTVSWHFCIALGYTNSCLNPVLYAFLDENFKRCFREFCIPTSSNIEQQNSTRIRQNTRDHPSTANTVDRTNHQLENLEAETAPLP
Assay: biochemical; also: assay procedure not described here
Format: functional

* CC(C)OC(=O)C(C(=O)OC(C)C)=C1SC=CS1 [MALOTILATE] | > 30 µM
* COc1cc(OC)c(C(=O)CCCN2CCCC2)c(OC)c1 | > 30 µM
* Cc1cccc(N(C)C(=S)Oc2ccc3ccccc3c2)c1 [TOLNAFTATE] | > 30 µM
* O=C(Nc1c(Cl)cncc1Cl)c1ccc(OC(F)F)c(OCC2CC2)c1 | > 30 µM

Each compound below has a recorded value; state its AC50.
1. COc1ccc(Cc2nccc3cc(OC)c(OC)cc23)cc1OC
2. CC(=O)/N=c1/sc(S(N)(=O)=O)nn1C [METHAZOLAMIDE]
3. COCCOC(=O)C1=C(C)NC(C)=C(C(=O)OC/C=C/c2ccccc2)C1c1cccc([N+](=O)[O-])c1 (configuration not stated)

## Output
> 30 µM
> 30 µM
> 30 µM

* * *

Reported AC50 values, D(1A) dopamine receptor (Homo sapiens, UniProt P21728).

Examples from the recorded data:
- Clc1cccc(Cl)c1N=C1NCCN1: > 10 µM
- CC(=O)OCC(CCn1cnc2cnc(N)nc21)COC(C)=O: > 10 µM
- CCn1cc(C(=O)O)c(=O)c2cc(F)c(N3CCNCC3)nc21: > 10 µM
- O=C1CN=C(c2ccccc2)c2cc(Cl)ccc2N1: > 10 µM

Each compound below has a recorded value; state its AC50.
1. COc1ccc2c(c1)[C@]13CCCC[C@@H]1[C@H](C2)N(C)CC3
2. CCCC(C)(COC(N)=O)COC(=O)NC(C)C (stereo unspecified)

## Output
1. > 10 µM
2. > 10 µM

Each compound below has a recorded value; state its AC50.
1. CCCCNc1ccc(C(=O)OCCN(C)C)cc1
2. COCCCOc1ccnc(C[S+]([O-])c2nc3ccccc3[nH]2)c1C (stereo unspecified)
3. N#C[C@@H]1CCCN1C(=O)CNC12CC3CC(CC(O)(C3)C1)C2

## Output
1. > 10 µM
2. > 10 µM
3. > 10 µM
